The origin of these recorded values is the supplement of paper PMC6757056.

Each record here notes measured normalized RNA/DNA level with ligand (log10).
B1: library; a variant is named by its letters at N, in order (parent)
chain: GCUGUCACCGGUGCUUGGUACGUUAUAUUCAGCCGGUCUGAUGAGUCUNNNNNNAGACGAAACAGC

Variants of: B1
experimental-protocol: normalized RNA/DNA level with ligand (relative to sTRSVctl = 100) (log10 (% of sTRSVctl)); HEK293T overexpressing SLC46A1; ligand concentration (+) RNA-Seq: 6 mM; higher = less ribozyme self-cleavage, higher mRNA level
measurement-conditions: with (6R,S)-folinic acid; ligand present: yes
metric-name: normalized RNA/DNA level with ligand (log10)

• UCUGAG = 1.98
• GAAGGA = 2.01
• UUAUUU = 2
• UGACAA = 2.02
• GUACCU = 2.06
• UACUCA = 1.98
• CGAACA = 1.98
